target: MAGI2_3, Q86UL8; test: holdup assay; set-up: key: below the threshold = too weak to quantify, mostly under pKd 3.1 to 4; conditions: plain residues with an end cap or a label only (N-terminal biotin on a linker: ado-ado)
Sequence (Q86UL8 600-682): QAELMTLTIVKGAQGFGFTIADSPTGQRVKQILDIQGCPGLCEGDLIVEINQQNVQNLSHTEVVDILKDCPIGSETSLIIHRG
Measured metric: pKd

# Binder, pKd
rows = [
    ("DRIQSCLSDA [SBF1, O95248]", "below the threshold"),
    ("VLYPREGTEV [FOXI1, Q12951]", "below the threshold"),
    ("NVYGIESVKI [GRIA2, P42262]", "below the threshold"),
    ("SVTSERETNI [SLC16A7, O60669]", "below the threshold"),
    ("EKCGKEFSEF [PRKACA, P17612]", "below the threshold"),
]

For the binder IDESKKEWLI [CNTNAP2, Q9UHC6] , what pKd is on record?
3.5

Let us now turn to RDPPAEWTRV [PTPN18, Q99952]
4.46

Let us now turn to SRSVVESDEL [MYPN, Q86TC9]
below the threshold

Let us now turn to RQKEVRESKC [SCN8A, Q9UQD0]
3.51

Let us now turn to LESTTVGTSV [KARS1, Q15046]
3.73

Let us now turn to AAVENKVTDL [PLXNB1, O43157]
below the threshold

Let us now turn to QSGLYESEEL [MYOT, Q9UBF9]
below the threshold

Let us now turn to ARGPPRESEV [FAM110D, Q8TAY7]
3.53

Let us now turn to NIAESLESLV [PTPRZ1, P23471]
4.44

Let us now turn to PSVGSKKTVL [REELD1, A0A1B0GV85]
below the threshold

Let us now turn to LPAVCYDIDI [PTTG2, Q9NZH5]
below the threshold
